System: SNB-75 CNS
Method description: NCI-60 one-dose screen, 48 h (100 = growth as untreated, 0 = no growth, -100 = all killed)
Assay setup: 10 µM unless noted
The panel holds about 83,000 compounds, 20% with a hit somewhere; the sample as a whole holds those more often.
So basically: is growth under 80%? Then TRUE. Not under? Then FALSE.

# count of solved cases: 5
Compound	Target or test system	Cat
CCc1ccc(NC(=O)N[C@@H](Cc2cccc(C)c2)C(=O)N[C@@H]2C(=O)N3CCC[C@H]3C(=O)N3CCCC[C@H]3C(=O)N[C@@H](CO)C(=O)N3C[C@H](C)C[C@H]3C(=O)O[C@H]2C)c(F)c1	SNB-75 CNS	TRUE
COc1ccc(C(=O)c2c(N)c(C#N)cn2-c2cccc(OC)c2)cc1	SNB-75 CNS	TRUE
CS(=O)(=O)c1ccc2c(c1)c1c(n2Cc2ccc(Cl)cc2)CCCC1	SNB-75 CNS	TRUE
O=c1[nH]c2cc(Cl)ccc2n1C1CCN(c2ccc3nnc(Cl)n3n2)CC1	SNB-75 CNS	TRUE
Nc1nc(N)c2c(n1)NC(c1ccccc1)CC(c1ccc(Nc3nc(NCCO)nc(Nc4ccc(Cl)cc4)n3)cc1)=N2 (stereo unspecified)	SNB-75 CNS	FALSE

Just wondering, is growth of CC(C)=CCc1c2c(c(O)c3c1O[C@]14C(=C[C@@H]5C[C@H]1C(C)(C)O[C@@]4(C/C=C(/C)C(=O)O)C5=O)C3=O)CC(O)C(C)(C)O2 (stereo partly specified) below 80%?
TRUE

====

Test system: TK-10 renal
Method description: NCI-60 one-dose screen, 48 h (100 = growth as untreated, 0 = no growth, -100 = all killed)
Assay setup: 10 µM unless noted
This is part of a sample that, as a whole, favours compounds with a hit. Of some 83,000 tested, about 20% had one in any assay. Activity calls are given as the source filed them. The calls were made as follows: active = growth percent below 10; inactive = the rest.
Experimental endpoint: growth

Here's what some known entries look like.
> print(dat)
                                   molecule        data.value
1  COc1c([C@@H](CC(C)C)OC(C)=O)ccc2c1C(=O)OCc1cc(C)cc(O)c1O2  33.6% (inactive)
2  N#Cc1c(-c2ccccc2)cc(-c2c[nH]c3ccccc23)nc1-c1c[nH]c2ccccc12   124% (inactive)
3  CS(=O)c1nccc(-c2c(-c3ccc(F)c(OCCc4ccccc4)c3)nc3sccn23)n1 (configuration not stated)   105% (inactive)
4  O=C(NCCCNc1cc(-c2cn(-c3ccccc3)nc2-c2cccc(O)c2)ccn1)Nc1cccc(C(F)(F)F)c1  88.3% (inactive)

Notebook: CCN(CC)c1ccc2cc(C(=O)NCCOCCOCCOCCn3cc(CCC(=O)Nc4ccc(C(=O)c5ccc(NC(=O)OC(C)(C)C)cc5)cc4)nn3)c(=O)oc2c1 , growth read as 95.6% (inactive)

Notebook: O=S(=O)(Nc1ccc(-n2cnc3cc(-c4ccc(O)cc4)ccc32)cc1)C1CC1 , growth read as 111% (inactive)

Notebook: COc1cc(/C=C/C(=O)c2ccc(NC(=O)COc3cccc4cccnc34)cc2)cc(OC)c1OC , growth read as 147% (inactive)

====

# growth listing for each entry below
Test system: TK-10 renal
Method description: NCI-60 one-dose screen, 48 h (100 = growth as untreated, 0 = no growth, -100 = all killed)
Assay setup: 10 µM unless noted
This is part of a sample that, as a whole, favours compounds with a hit. Of some 83,000 tested, about 20% had one in any assay. Calls of active or inactive are those of the source. Rule for the calls: active = growth percent below 10; inactive = the rest.

> print(dat)
                                   molecule  target.or.test.system  experimental.endpoint        data.value
1  COc1cc(C(=O)c2cc(C(C)=O)c3c4ccccc4ccn23)cc(OC)c1OC            TK-10 renal                 growth  70.3% (inactive)

Notebook: O=C(COc1ccc(/C=C2\SC(=O)NC2=O)cc1)Nc1ccc(C(=O)/C=C/c2cc3ccccc3nc2Cl)cc1 , growth read as 89.8% (inactive)

Notebook: O=C(Nc1cccc(Cl)c1)Nc1nc2ccc([N+](=O)[O-])cc2s1 , growth read as -2.79% (active)

Notebook: C=CCn1c(SCC(=O)Nc2cccc(C(=O)/C=C/c3ccccc3)c2)nc2ccccc2c1=O , growth read as 116% (inactive)

Notebook: CCNC(=NCCCN(C)C)N/C(N)=N/c1nc2ccccc2s1 , growth read as 100% (inactive)

Notebook: COC[C@@]1(C)CC[C@]2(C)CC[C@]3(C)C(=CC[C@@H]4[C@@]5(C)CCCNC(C)(C)[C@@H]5CC[C@]43C)C2C1 (stereo partly drawn) , growth read as 110% (inactive)

Notebook: Cc1cc(Cl)cc(NS(=O)(=O)c2ccc(-c3cnc(C4CC4)o3)cc2)c1 , growth read as 83.5% (inactive)

Notebook: C#C[C@]1(O)CC[C@H]2[C@@H]3CC=C4c5sc(-c6ccccn6)nc5CC[C@]4(C)[C@H]3CC[C@@]21C , growth read as 104% (inactive)

====

System: PC-3 prostate
Method description: NCI-60 one-dose screen, 48 h (100 = growth as untreated, 0 = no growth, -100 = all killed)
Assay setup: 10 µM unless noted
Compounds without any hit were thinned out: in the full panel of roughly 83,000, 20% have a hit.
So basically: is growth under 30%? Then TRUE. Not under? Then FALSE.

Molecule	Target or test system	Cat
c1cncc(-c2cn3nc(-c4c[nH]c5ccccc45)sc3n2)c1	PC-3 prostate	FALSE
Cn1c2ccccc2c2c3c(c4c5ccc(Br)cc5oc4c21)C(=O)N(O)C3=O	PC-3 prostate	FALSE
C=C(C)[C@@H]1CC[C@]2(COS(C)(=O)=O)CC[C@]3(C)[C@H](CC[C@@H]4[C@@]5(C)CCCNC(C)(C)[C@@H]5CC[C@]43C)[C@@H]12	PC-3 prostate	FALSE
CC[C@]12C=CCN3CC[C@]4(C(=C(C(=O)OC)C1)Nc1cc5c(cc14)[C@@H]1[C@H](O5)[C@@H](O)[C@@]4(CC)CC(C(=O)OC)=C5Nc6cc(OC)ccc6[C@@]56CCN1[C@@H]46)[C@@H]32	PC-3 prostate	TRUE

Now let's try a different one.
Just wondering, is growth of IP(CCCSc1n(Cc2ccc3ccccc3c2)c(-c2ccccc2)c(-c2ccccc2)[n+]1Cc1ccc2ccccc2c1)(c1ccccc1)(c1ccccc1)c1ccccc1 below 30%?
FALSE

====

Test system: MCF7 breast
Method description: NCI-60 one-dose screen, 48 h
Assay setup: 10 µM unless noted
This is part of a sample that, as a whole, favours compounds with a hit. Of some 83,000 tested, about 20% had one in any assay. Calls of active or inactive are those of the source. How the source made its calls: active means growth percent below 10; inactive means the rest.
// one of active, inactive, no free text

# count of solved cases: 6
> print(dat)
                                   compound       cat
1  COc1ccc(NC(=O)[C@H](C)NC(=O)OC(C)(C)C)cc1C(=O)Nc1cccc(-c2cc(=O)c3c(OC)c(OC)c(OC)cc3o2)c1    active
2  COc1ccc(-c2no[n+]([O-])c2Nc2ccccc2Br)cc1  inactive
3  COC[C@]12CC[C@@H](C)[C@H](C)[C@H]1C1=CC[C@@H]3[C@@]4(C)CCCNC(C)(C)[C@@H]4CC[C@@]3(C)[C@]1(C)CC2    active
4  Cc1cn(-c2cc(NC(=O)c3cncc(C#Cc4cnc5ccc(O[C@H]6CCOC6)nn45)c3)cc(C(F)(F)F)c2)cn1  inactive
5  CCOC(=O)C1=C(C)N=C2Sc3ccccc3N2C1c1ccccc1 (stereo not drawn)  inactive
6  CN1C(=O)N(C)C2C1NN=c1s/c(=C\c3ccccn3)c(=O)n12 (stereo not drawn)  inactive

What call does the record list for CCN1CCN(c2cc(C(=O)Nc3nc4ccc(Oc5ccnc(C(=O)NC)c5)cc4s3)cc(C(F)(F)F)c2)CC1 ?
inactive

What call does the record list for Fc1ccccc1/C=C(/C1=NCCN1)n1cnc2ccccc21 ?
inactive

What call does the record list for Oc1ccccc1-c1nnc(SCc2ccc(O)c3ncccc23)n1-c1ccccc1 ?
active

What call does the record list for O=C1[C@H]2Cc3c([nH]c4ccccc34)[C@@H](c3c(Cl)cccc3Cl)N2C(=O)CN1C1CCN(Cc2ccccc2)CC1 ?
inactive

What call does the record list for CCCCCCNC(=O)Oc1ccc(/C(=C(\C)c2ccc(OC)cc2)c2ccc(OCCN(C)C)cc2)cc1 ?
inactive

What call does the record list for COc1ccc(-c2nc3cc(Cl)c(Cl)cc3n2CC(=O)N=Nc2c(O)[nH]c3ccc(Cl)cc23)cc1 ?
inactive

What call does the record list for NC(=O)c1c(NC(=O)c2cccc(OC(F)(F)F)c2)sc2c1CCC(=O)C2 ?
inactive

====

Tested on: LOX IMVI melanoma
Method description: NCI-60 one-dose screen, 48 h (100 = growth as untreated, 0 = no growth, -100 = all killed)
Assay setup: 10 µM unless noted
Method: Growth inhibition of the LOX IMVI human tumor cell line is measured as a screen for anti-cancer activity. Cells are grown in 96 well plates and exposed to the test compound for 48 hours. Compounds are tested at a single concentration, which is 10^-5 M for most compounds. The reported endpoint is percent growth (GI% or GIPRCNT), where numbers from 0 - 100% represent growth inhibition, and numbers from -100% - 0 represent cell death. For example, a value of 40 represents 60% growth inhibition. […]
Compounds without any hit were thinned out: in the full panel of roughly 83,000, 20% have a hit.
# growth listing for each entry below
The figure you give is taken to be in %; do not add the unit.

Here's what some known entries look like.
> print(dat)
                                    compound  target.or.test.system  data.value
 1  CN1C(=O)N(C)C2Nn3c(s/c(=C\c4ccccn4)c3=O)=NC21 (stereo not given)      LOX IMVI melanoma        99.6
 2  CSc1nccc(-c2c(-c3ccc(F)c(OCc4ccc(F)cc4)c3)nc3sccn23)n1      LOX IMVI melanoma          74
 3  COC(=O)Nc1ccc(-c2nc(-c3cccc(O)c3)c(-c3ccnc(Br)c3)[nH]2)cc1      LOX IMVI melanoma          38
 4  O=C1/C(=C/c2ccc([N+](=O)[O-])cc2)SC(=Nc2ccccc2)N1Nc1ccccc1      LOX IMVI melanoma        19.3
 5         Cc1cc(C(=O)Nc2ccc(SC#N)cc2)c(C)o1      LOX IMVI melanoma       -41.2
 6  COc1cc2c3c(n(CCCNC4CCCCC4)c(=O)c2cc1OC)-c1cc2c(cc1C3=O)OCO2      LOX IMVI melanoma       -76.7
 7  Cc1cn(-c2cc(NC(=O)c3cncc(C#Cc4cnc5ccc(O[C@@H]6CCOC6)nn45)c3)cc(C(F)(F)F)c2)cn1      LOX IMVI melanoma       -75.7
 8  O=C1[C@@H]2Cc3c([nH]c4ccccc34)[C@H](c3c(Cl)cccc3Cl)N2C(=O)CN1C1CCN(Cc2c(F)cccc2F)CC1      LOX IMVI melanoma       -47.1
 9  O=C(CCCCCCN1CC(=O)N2[C@@H](c3cccc(Br)c3)c3[nH]c4ccccc4c3C[C@H]2C1=O)NO      LOX IMVI melanoma       -59.8
10  COc1cc2oc(-c3cccc(NC(=O)c4cc(NC(=O)[C@H](C)N)ccc4Cl)c3)cc(=O)c2c(OC)c1OC      LOX IMVI melanoma        80.9

Notebook: Cc1ccc(C2CC(c3ccc(Nc4nc(NCCO)nc(Nc5ccc(Cl)cc5)n4)cc3)=Nc3c(N)nc(N)nc3N2)cc1 (stereo not given) , growth read as -93.9

Notebook: COc1ccc(-c2oc3cc(O)cc(O)c3c(=O)c2OC)cc1O , growth read as 36.8

Notebook: Nc1ccc(-c2nnc(SCc3ccc(O)c4ncccc34)o2)cc1 , growth read as 0.185

Notebook: Oc1ccc(CSc2nnc(-c3cnccn3)o2)c2cccnc12 , growth read as 17.5

Notebook: COc1cc(/C=C/C(=O)c2ccc(NC(=O)COc3cccc4cccnc34)cc2)cc(OC)c1OC , growth read as 42.5
